Measured values drawn from ChEMBL document CHEMBL1131910 for this set.

Molecular target: Coagulation factor X (Homo sapiens)
Experiment: In vitro inhibition of human Factor Xa.
PROPERTY_MEASURED: pIC50
The scale used: pIC50 is minus the common logarithm of the concentration in molar units.

Previously resolved entries follow.
- MOLECULE: "N=C(N)N1CCC[C@H](NC(=O)CNC(=O)[C@@H](CCNC(=O)c2cnc3ccccc3c2)NC(=O)OCc2ccccc2)C1O (some centres not stated)"
  pIC50: 6.77
- MOLECULE: "N=C(N)N1CCC[C@H](NC(=O)CNC(=O)[C@@H](CCNC(=O)c2cn[nH]c2)NC(=O)OCc2ccccc2)C1O (some centres not stated)"
  pIC50: 6.46
- MOLECULE: "N=C(N)N1CCC[C@H](NC(=O)CNC(=O)[C@@H](CCNC(=O)c2cncc(Br)c2)NC(=O)OCc2ccccc2)C1O (some centres not stated)"
  pIC50: 6.51

Now consider the entry below.
Report pIC50 for N=C(N)N1CCC[C@H](NC(=O)CNC(=O)[C@@H](CCNC(=O)c2cncc(Br)c2)NS(=O)(=O)Cc2ccccc2)C1O (some centres not stated) 7.97

* * *

Molecular target: Serine protease 1 (Homo sapiens)
Sequence (P07477 whole entry): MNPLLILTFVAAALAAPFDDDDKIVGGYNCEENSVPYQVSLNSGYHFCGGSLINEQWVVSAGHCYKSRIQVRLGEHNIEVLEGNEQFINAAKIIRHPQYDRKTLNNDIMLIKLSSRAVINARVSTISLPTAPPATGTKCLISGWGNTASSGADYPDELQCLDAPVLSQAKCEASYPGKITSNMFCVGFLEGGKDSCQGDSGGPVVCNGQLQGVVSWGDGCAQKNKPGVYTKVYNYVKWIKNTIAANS
Assay: In vitro inhibition of human trypsin.
pIC50 values for the compounds below.
The scale used: pIC50 is minus the common logarithm of the concentration in molar units.

Previously resolved entries follow.
- COMPOUND: "N=C(N)N1CCC[C@H](NC(=O)CNC(=O)[C@@H](CCNC(=O)c2nccc3ccccc23)NS(=O)(=O)Cc2ccccc2)C1O (stereo not given in full)"
  pIC50: 7.01
- COMPOUND: "N=C(N)N1CCC[C@H](NC(=O)CNC(=O)[C@@H](CCNC(=O)c2cnccn2)NS(=O)(=O)Cc2ccccc2)C1O (stereo not given in full)"
  pIC50: 6.78
- COMPOUND: "N=C(N)N1CCC[C@H](NC(=O)CNC(=O)[C@@H](CCNC(=O)c2ccc(O)nc2)NS(=O)(=O)Cc2ccccc2)C1O (stereo not given in full)"
  pIC50: 7.58
- COMPOUND: "N=C(N)N1CCC[C@H](NC(=O)CNC(=O)[C@@H](CCNC(=O)c2cn[nH]c2)NC(=O)OCc2ccccc2)C1O (stereo not given in full)"
  pIC50: 7.13

Report pIC50 for Cc1cnc(C(=O)NCC[C@@H](NC(=O)OCc2ccccc2)C(=O)NCC(=O)N[C@H]2CCCN(C(=N)N)C2O)cn1 (stereo not given in full) 7.39

Report pIC50 for N=C(N)N1CCC[C@H](NC(=O)CNC(=O)[C@@H](CCCNC(=O)c2cnccn2)NS(=O)(=O)Cc2ccccc2)C1O (stereo not given in full) 6.49

Report pIC50 for N=C(N)N1CCC[C@H](NC(=O)CNC(=O)[C@@H](CCNC(=O)c2cnnc3ccccc23)NS(=O)(=O)Cc2ccccc2)C1O (stereo not given in full) 8.38

Report pIC50 for N=C(N)N1CCC[C@H](NC(=O)CNC(=O)[C@@H](CCNC(=O)c2ccccn2)NS(=O)(=O)Cc2ccccc2)C1O (stereo not given in full) 6.65

Report pIC50 for N=C(N)N1CCC[C@H](NC(=O)CNC(=O)[C@@H](CCNC(=O)c2cnc3ccccc3c2)NC(=O)OCc2ccccc2)C1O (stereo not given in full) 7.69

* * *

Target: Serine protease 1 (Homo sapiens)
Test: In vitro inhibition of human trypsin.
PROPERTY_MEASURED: IC50 (nM)
Value expressed in nM; do not type the unit.

Previously resolved entries follow.
- COMPOUND: "N=C(N)N1CCC[C@H](NC(=O)CNC(=O)[C@@H](CCNC(=O)c2ccc3ccccc3n2)NS(=O)(=O)Cc2ccccc2)C1O (stereo partly drawn)"
  TGT: "Serine protease 1 (Homo sapiens)"
  PROPERTY_MEASURED: "IC50"
  EXPERIMENTAL_VALUE: 59.2
- COMPOUND: "N=C(N)N1CCC[C@H](NC(=O)CNC(=O)[C@@H](CCNC(=O)c2cnc3ccccc3c2)NS(=O)(=O)Cc2ccccc2)C1O (stereo partly drawn)"
  TGT: "Serine protease 1 (Homo sapiens)"
  PROPERTY_MEASURED: "IC50"
  EXPERIMENTAL_VALUE: 111

Report IC50 for N=C(N)N1CCC[C@H](NC(=O)CNC(=O)[C@@H](CNC(=O)c2cnccn2)NS(=O)(=O)Cc2ccccc2)C1O (stereo partly drawn) 152

* * *

pIC50 values for the molecules below.
Biological target: Plasminogen (Homo sapiens)
Sequence (P00747 97-580 limits assumed): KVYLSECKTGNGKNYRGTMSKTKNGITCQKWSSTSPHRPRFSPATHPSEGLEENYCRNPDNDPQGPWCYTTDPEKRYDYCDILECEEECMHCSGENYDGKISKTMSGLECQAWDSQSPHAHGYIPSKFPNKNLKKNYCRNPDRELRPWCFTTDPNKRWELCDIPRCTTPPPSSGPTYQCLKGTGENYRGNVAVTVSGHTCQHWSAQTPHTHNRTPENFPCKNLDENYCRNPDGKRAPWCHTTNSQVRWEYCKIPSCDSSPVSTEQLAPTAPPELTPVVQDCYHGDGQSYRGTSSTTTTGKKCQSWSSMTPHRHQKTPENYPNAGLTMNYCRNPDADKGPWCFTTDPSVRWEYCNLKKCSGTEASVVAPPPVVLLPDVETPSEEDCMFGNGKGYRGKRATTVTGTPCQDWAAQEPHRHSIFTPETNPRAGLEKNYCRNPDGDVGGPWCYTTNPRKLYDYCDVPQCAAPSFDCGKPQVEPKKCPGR
Sequence (P00747 581-810 limits assumed): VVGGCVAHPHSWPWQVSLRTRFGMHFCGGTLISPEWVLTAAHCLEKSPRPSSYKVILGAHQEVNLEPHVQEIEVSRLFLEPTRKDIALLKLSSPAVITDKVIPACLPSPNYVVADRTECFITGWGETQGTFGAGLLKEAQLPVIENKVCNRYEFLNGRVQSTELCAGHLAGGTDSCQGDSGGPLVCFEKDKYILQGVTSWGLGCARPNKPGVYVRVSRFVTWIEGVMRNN
Assay: In vitro inhibition of human thrombolytic protease Plasmin.
The scale used: pIC50 is minus the common logarithm of the concentration in molar units.

- MOLECULE: "N=C(N)N1CCC[C@H](NC(=O)CNC(=O)[C@@H](CCNC(=O)c2cnc3ccccc3c2)NS(=O)(=O)Cc2ccccc2)C1O (some centres not stated)"
  PROPERTY_MEASURED: "pIC50"
  EXPERIMENTAL_VALUE: 6.60
- MOLECULE: "N=C(N)N1CCC[C@H](NC(=O)CNC(=O)[C@@H](CCNC(=O)c2cncc(Br)c2)NS(=O)(=O)Cc2ccccc2)C1O (some centres not stated)"
  PROPERTY_MEASURED: "pIC50"
  EXPERIMENTAL_VALUE: 5.97
- MOLECULE: "N=C(N)N1CCC[C@H](NC(=O)CNC(=O)[C@@H](CCNC(=O)c2cccnc2)NS(=O)(=O)Cc2ccccc2)C1O (some centres not stated)"
  PROPERTY_MEASURED: "pIC50"
  EXPERIMENTAL_VALUE: 5.60
- MOLECULE: "N=C(N)N1CCC[C@H](NC(=O)CNC(=O)[C@@H](CCNC(=O)c2cn[nH]c2)NC(=O)OCc2ccccc2)C1O (some centres not stated)"
  PROPERTY_MEASURED: "pIC50"
  EXPERIMENTAL_VALUE: 5.49
- MOLECULE: "N=C(N)N1CCC[C@H](NC(=O)CNC(=O)[C@@H](CCCNC(=O)c2cnccn2)NS(=O)(=O)Cc2ccccc2)C1O (some centres not stated)"
  PROPERTY_MEASURED: "pIC50"
  EXPERIMENTAL_VALUE: 6.17

Report pIC50 for N=C(N)N1CCC[C@H](NC(=O)CNC(=O)[C@@H](CCNC(=O)c2ccc3ccccc3n2)NS(=O)(=O)Cc2ccccc2)C1O (some centres not stated) 5.84

Report pIC50 for N=C(N)N1CCC[C@H](NC(=O)CNC(=O)[C@@H](CCNC(=O)c2ccc(O)nc2)NS(=O)(=O)Cc2ccccc2)C1O (some centres not stated) 6.44

Report pIC50 for N=C(N)N1CCC[C@H](NC(=O)CNC(=O)[C@@H](CCNC(=O)c2cnc3ccccc3c2)NC(=O)OCc2ccccc2)C1O (some centres not stated) 5.94

* * *

Molecular target: Prothrombin (Homo sapiens, UniProt P00734)
Assay: In vitro inhibition of human Thrombin (FIIa).
PROPERTY_MEASURED: IC50

Previously resolved entries follow.
- COMPOUND: "N=C(N)N1CCC[C@H](NC(=O)CNC(=O)[C@@H](CCNC(=O)c2cn[nH]c2)NC(=O)OCc2ccccc2)C1O (some centres undefined)"
  TGT: "Prothrombin (Homo sapiens, UniProt P00734)"
  IC50: "> 2500 nM"
- COMPOUND: "N=C(N)N1CCC[C@H](NC(=O)CNC(=O)[C@@H](CCNC(=O)c2cncc(Br)c2)NC(=O)OCc2ccccc2)C1O (some centres undefined)"
  TGT: "Prothrombin (Homo sapiens, UniProt P00734)"
  IC50: "> 2500 nM"
- COMPOUND: "N=C(N)N1CCC[C@H](NC(=O)CNC(=O)[C@@H](CCNC(=O)c2cnc3ccccc3c2)NC(=O)OCc2ccccc2)C1O (some centres undefined)"
  TGT: "Prothrombin (Homo sapiens, UniProt P00734)"
  IC50: "> 2500 nM"

Report IC50 for Cc1cnc(C(=O)NCC[C@@H](NC(=O)OCc2ccccc2)C(=O)NCC(=O)N[C@H]2CCCN(C(=N)N)C2O)cn1 (some centres undefined) > 2500 nM

Report IC50 for N=C(N)N1CCC[C@H](NC(=O)CNC(=O)[C@@H](CCNC(=O)c2nccc3ccccc23)NC(=O)OCc2ccccc2)C1O (some centres undefined) > 2500 nM

* * *

Molecular target: Coagulation factor X (Homo sapiens, UniProt P00742)
Sequence (P00742 41-179 limits assumed): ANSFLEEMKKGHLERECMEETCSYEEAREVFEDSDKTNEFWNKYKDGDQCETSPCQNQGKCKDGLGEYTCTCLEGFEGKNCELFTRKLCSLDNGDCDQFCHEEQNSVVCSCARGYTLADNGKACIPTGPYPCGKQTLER
Sequence (P00742 235-488 limits assumed): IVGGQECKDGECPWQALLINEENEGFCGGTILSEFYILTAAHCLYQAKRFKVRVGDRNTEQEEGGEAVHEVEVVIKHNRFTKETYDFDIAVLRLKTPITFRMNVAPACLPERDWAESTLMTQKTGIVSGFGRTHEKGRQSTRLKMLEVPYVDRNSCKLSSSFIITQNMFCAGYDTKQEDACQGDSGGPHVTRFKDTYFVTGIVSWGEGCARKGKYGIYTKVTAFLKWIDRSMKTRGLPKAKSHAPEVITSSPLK
Assay: In vitro inhibition of human Factor Xa.
I'd appreciate it if you marked entries criterion met when IC50 is lower than 80 nM and criterion not met when it is not.

These solved cases illustrate the format of a correct answer.
- COMPOUND: "N=C(N)NCCCC(NS(=O)(=O)Cc1ccccc1)C(=O)NCC(=O)N[C@H]1CCCN(C(=N)N)C1O (stereo partly drawn)"
  LABEL_VALUE: "criterion met"
- COMPOUND: "N=C(N)N1CCC[C@H](NC(=O)CNC(=O)[C@@H](CCNC(=O)c2ccc(O)nc2)NS(=O)(=O)Cc2ccccc2)C1O (stereo partly drawn)"
  LABEL_VALUE: "criterion met"
- COMPOUND: "N=C(N)N1CCC[C@H](NC(=O)CNC(=O)[C@@H](CNC(=O)c2cnccn2)NS(=O)(=O)Cc2ccccc2)C1O (stereo partly drawn)"
  LABEL_VALUE: "criterion not met"
- COMPOUND: "N=C(N)N1CCC[C@H](NC(=O)CNC(=O)[C@@H](CCNC(=O)c2ccc3ccccc3n2)NS(=O)(=O)Cc2ccccc2)C1O (stereo partly drawn)"
  LABEL_VALUE: "criterion met"

Does the reported IC50 of the following compound sit strictly below 80 nM? N=C(N)N1CCC[C@H](NC(=O)CNC(=O)[C@@H](CCNC(=O)c2cnc3ccccc3c2)NS(=O)(=O)Cc2ccccc2)C1O (stereo partly drawn) criterion met

Does the reported IC50 of the following compound sit strictly below 80 nM? Cc1cnc(C(=O)NCC[C@@H](NC(=O)OCc2ccccc2)C(=O)NCC(=O)N[C@H]2CCCN(C(=N)N)C2O)cn1 (stereo partly drawn) criterion not met

Does the reported IC50 of the following compound sit strictly below 80 nM? N=C(N)N1CCC[C@H](NC(=O)CNC(=O)[C@@H](CCNC(=O)c2nc3ccccc3nc2O)NS(=O)(=O)Cc2ccccc2)C1O (stereo partly drawn) criterion not met
